Tested On: SHP-2 (Homo sapiens)
Construct: using the catalytic core of a human recombinant PTP as the enzyme
Sequence (Q06124 247-517 limits assumed): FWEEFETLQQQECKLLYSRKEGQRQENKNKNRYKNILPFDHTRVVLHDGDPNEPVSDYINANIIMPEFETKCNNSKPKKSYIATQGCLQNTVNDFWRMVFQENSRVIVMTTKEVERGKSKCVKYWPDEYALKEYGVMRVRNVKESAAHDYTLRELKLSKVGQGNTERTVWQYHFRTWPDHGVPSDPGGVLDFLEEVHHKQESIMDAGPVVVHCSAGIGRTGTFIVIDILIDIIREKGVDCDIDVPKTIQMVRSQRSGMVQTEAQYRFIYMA
Protocol Description: PTP Enzyme Assay (DiFMUP), SHP-2
Experimental Context: 20 λM DiFMUP; read-out: IC50 value in respect of SHP-2
pIC50: −log10 of the molar value.
Readout Label: pIC50

[1] CCCCCCCCCCCCNC(=O)c1ccc(CN(Cc2ccc(C(F)(F)F)cc2)C(=O)C(=O)O)cc1 [Example 10]
[2] CCCCCCCCCCCCCCCNC(=O)c1ccc(CN(Cc2ccc(C(F)(F)F)cc2)C(=O)C(=O)O)cc1 [Example 4]
Ask: Of 1 and 2 , which one carries the higher reported pIC50? Respond with the label that goes with your answer.
Result: 2

---

Tested On: GLEPP-1 (Homo sapiens)
Construct: using the catalytic core of a human recombinant PTP as the enzyme
Sequence (Q16827 938-1195 limits assumed): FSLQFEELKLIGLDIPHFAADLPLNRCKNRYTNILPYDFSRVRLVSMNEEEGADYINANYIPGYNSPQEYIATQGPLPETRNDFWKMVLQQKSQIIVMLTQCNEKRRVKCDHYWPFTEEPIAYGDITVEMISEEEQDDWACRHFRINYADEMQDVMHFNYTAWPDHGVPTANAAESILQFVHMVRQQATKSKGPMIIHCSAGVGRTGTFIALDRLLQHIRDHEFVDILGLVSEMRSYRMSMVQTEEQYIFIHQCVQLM
Protocol Description: PTP Enzyme Assay (DiFMUP), GLEPP-1
Experimental Context: 30 μM DiFMUP; read-out: IC50 value in respect of GLEPP-1
Procedure: The PTP Enzyme Assay aims at determining the extent of inhibition of PTPs, e.g. of PTP1B, SHP-1, SHP-2 or GLEPP-1 in the presence of a test compound of formula (I). […] Assays were performed in a 96 well plate format, using the catalytic core of a human recombinant PTP as the enzyme and 6,8-DiFluoro-4-MethylUmbelliferyl Phosphate (DiFMUP, Molecular Probes, D-6567) as a substrate. […] The IC50 values for inhibition were determined in triplicates.
pIC50: −log10 of the molar value.
Readout Label: pIC50

[P] CCCCCCCCCCCCNC(=O)c1ccc(CN(Cc2ccc(C(F)(F)F)cc2)C(=O)C(=O)O)cc1
[Q] CCCCCCCCCCCCCCCNC(=O)c1ccc(CN(Cc2ccc(C(F)(F)F)cc2)C(=O)C(=O)O)cc1
Ask: Returns the identifier with the smallest measured pIC50 among P and Q . Respond with the label that goes with your answer.
Result: P

---

Tested On: SHP-1 (Homo sapiens)
Construct: using the catalytic core of a human recombinant PTP as the enzyme
Sequence (P29350 244-515 limits assumed): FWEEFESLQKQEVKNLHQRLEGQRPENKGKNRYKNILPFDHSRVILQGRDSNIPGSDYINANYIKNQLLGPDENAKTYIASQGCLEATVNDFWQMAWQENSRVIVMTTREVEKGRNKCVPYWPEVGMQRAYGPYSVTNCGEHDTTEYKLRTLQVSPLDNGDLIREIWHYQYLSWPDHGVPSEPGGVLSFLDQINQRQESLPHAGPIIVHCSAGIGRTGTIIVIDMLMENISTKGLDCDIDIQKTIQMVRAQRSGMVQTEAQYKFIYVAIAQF
Protocol Description: PTP Enzyme Assay (DiFMUP), SHP-1
Experimental Context: 20 λM DiFMUP; read-out: IC50 value in respect of SHP-1
Readout Label: IC50 (nM)

[A] CCCCCCCCCCCCCCCNC(=O)c1ccc(CN(Cc2ccc(C(F)(F)F)cc2)C(=O)C(=O)O)cc1 [Example 4]
[B] CCCCCCCCCCCCNC(=O)c1ccc(CN(Cc2ccc(C(F)(F)F)cc2)C(=O)C(=O)O)cc1 [Example 10]
Ask: Of A and B , which one carries the higher reported IC50? Respond with the label that goes with your answer.
Result: B
(B: 2400 nM, A: 1000 nM)
